# Target desc: UniProt C0H570
# Test details: IC50 for competition of protein binding to Kinobeads;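 also: native unpurified kinases from lysate captured on beads bearing immobilized kinase inhibitors, with bead-bound kinases quantified by mass spectrometry across compound doses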
# Recorded conditions: assay detail: Kinobeads competition in P. falciparum blood-stage lysate
pIC50: −log10 of the molar value.
Endpoint: pIC50

The reported pIC50 value, UniProt C0H570, for O=c1[nH]c2ccc(Cl)cc2c(NC2CN3CCC2CC3)c1-c1nc2ccccc2[nH]1 (stereo unspecified) [CHIR-124] reads < 4.70

---

# Target desc: UniProt O77376
# Test details: IC50 for competition of protein binding to Kinobeads
# Recorded conditions: assay detail: Kinobeads competition in P. falciparum blood-stage lysate
Endpoint: IC50

Quick note, IC50 for O=c1[nH]c2ccc(Cl)cc2c(NC2CN3CCC2CC3)c1-c1nc2ccccc2[nH]1 (stereo unspecified) landed at > 20 µM

---

# Target desc: UniProt Q8IDG2
# Test details: IC50 for competition of protein binding to Kinobeads
# Recorded conditions: assay detail: Kinobeads competition in P. falciparum blood-stage lysate
Endpoint: IC50

Quick note, IC50 for O=c1[nH]c2ccc(Cl)cc2c(NC2CN3CCC2CC3)c1-c1nc2ccccc2[nH]1 (stereo unspecified) landed at > 20 µM

---

# Target desc: UniProt Q8II13
# Test details: IC50 for competition of protein binding to Kinobeads
# Recorded conditions: assay detail: Kinobeads competition in P. falciparum blood-stage lysate
Endpoint: IC50

Quick note, IC50 for O=c1[nH]c2ccc(Cl)cc2c(NC2CN3CCC2CC3)c1-c1nc2ccccc2[nH]1 (stereo unspecified) landed at > 20 µM

---

# Target desc: UniProt Q8I574
# Test details: IC50 for competition of protein binding to Kinobeads
# Recorded conditions: assay detail: Kinobeads competition in P. falciparum blood-stage lysate
Endpoint: IC50

Quick note, IC50 for O=c1[nH]c2ccc(Cl)cc2c(NC2CN3CCC2CC3)c1-c1nc2ccccc2[nH]1 (stereo unspecified) [CHIR-124] landed at > 20 µM

---

# Target desc: UniProt Q8I2X0
# Test details: IC50 for competition of protein binding to Kinobeads
# Recorded conditions: assay detail: Kinobeads competition in P. falciparum blood-stage lysate
pIC50: −log10 of the molar value.
Endpoint: pIC50

Quick note, pIC50 for O=c1[nH]c2ccc(Cl)cc2c(NC2CN3CCC2CC3)c1-c1nc2ccccc2[nH]1 (stereo unspecified) landed at < 4.70

---

# Target desc: UniProt Q8ID96
# Test details: IC50 for competition of protein binding to Kinobeads
# Recorded conditions: assay detail: Kinobeads competition in P. falciparum blood-stage lysate
pIC50: −log10 of the molar value.
Endpoint: pIC50

Quick note, pIC50 for O=c1[nH]c2ccc(Cl)cc2c(NC2CN3CCC2CC3)c1-c1nc2ccccc2[nH]1 (stereo unspecified) [CHIR-124] landed at < 4.70

---

# Target desc: UniProt Q8I231
# Test details: IC50 for competition of protein binding to Kinobeads
# Recorded conditions: assay detail: Kinobeads competition in P. falciparum blood-stage lysate
Endpoint: IC50

Quick note, IC50 for O=c1[nH]c2ccc(Cl)cc2c(NC2CN3CCC2CC3)c1-c1nc2ccccc2[nH]1 (stereo unspecified) landed at > 20 µM

---

# Target desc: UniProt Q8I1R6
# Test details: IC50 for competition of protein binding to Kinobeads
# Recorded conditions: assay detail: Kinobeads competition in P. falciparum blood-stage lysate
Endpoint: IC50

Quick note, IC50 for O=c1[nH]c2ccc(Cl)cc2c(NC2CN3CCC2CC3)c1-c1nc2ccccc2[nH]1 (stereo unspecified) landed at > 20 µM
